- Test system: Plasmodium berghei
- protocol.summary: animal or person
- Type: in vivo, Plasmodium berghei (strain ANKA) in mice
- assay.conditions: Plasmodium berghei, sc; single subcutaneous dose of 10 mg/kg, mice, blood smears 48 h after treatment; read-out: Growth inhibition in % after sc administration (GI%, percentage reduction of the parasitemia)
- Protocol: Test method for the determination of the activity against Plasmodium berghei in vivo The preparations are tested on mice infected with malaria pathogens (Plasmodium berghei). […] 48 hours after the treatment (D+3) blood smears are prepared from all animals using blood from tail veins and are stained with giemsa. […] The difference in the average values of the infection rates of control group (100%) and treated groups is calculated and expressed as a percentage reduction (GI%). […]
Counter-ions that a name gives are not always drawn.

{"molecule": "Cl.Cl.Clc1cccc(CN[C@H]2CC[C@H](Nc3ccnc4cc(Cl)ccc34)CC2)c1 [Example 107, dihydrochloride]", "target.entity": "Plasmodium berghei", "unit.of.measurement": "%", "inhibition in vivo at 10 mg/kg": 95}
{"molecule": "CN(C)c1ccc(CN[C@H]2CC[C@H](Nc3ccnc4cc(Cl)ccc34)CC2)cc1.Cl.Cl.Cl [Example 113, trihydrochloride]", "target.entity": "Plasmodium berghei", "unit.of.measurement": "%", "inhibition in vivo at 10 mg/kg": 99.9}
{"molecule": "COc1cc(OC)c(CN[C@H]2CC[C@H](Nc3ccnc4cc(Cl)ccc34)CC2)c(OC)c1.Cl.Cl [Example 108, dihydrochloride]", "target.entity": "Plasmodium berghei", "unit.of.measurement": "%", "inhibition in vivo at 10 mg/kg": 100}
{"molecule": "Cl.Cl.Clc1ccc2c(N[C@H]3CC[C@@H](NCc4c(Cl)ccc(Cl)c4Cl)CC3)ccnc2c1 [Example 17, dihydrochloride]", "target.entity": "Plasmodium berghei", "unit.of.measurement": "%", "inhibition in vivo at 10 mg/kg": 87}
{"molecule": "CC(C)(CNc1ccnc2cc(Cl)ccc12)NCc1c(Cl)cccc1Cl [Example 12]", "target.entity": "Plasmodium berghei", "unit.of.measurement": "%", "inhibition in vivo at 10 mg/kg": 4}
{"molecule": "COc1ccc(CN[C@H]2CC[C@H](Nc3ccnc4cc(Cl)ccc34)CC2)c(OC)c1.Cl.Cl [Example 111, dihydrochloride]", "target.entity": "Plasmodium berghei", "unit.of.measurement": "%", "inhibition in vivo at 10 mg/kg": 99.8}
{"molecule": "Oc1ccccc1CN[C@H]1CC[C@@H](Nc2ccnc3cc(Cl)ccc23)CC1 [Example 78, dihydrochloride]", "target.entity": "Plasmodium berghei", "unit.of.measurement": "%", "inhibition in vivo at 10 mg/kg": 100}
{"molecule": "Cl.Cl.Clc1ccc(CN[C@@H]2CC[C@H](Nc3ccnc4cc(Cl)ccc34)C2)cc1 (relative stereo) [Example 68, dihydrochloride]", "target.entity": "Plasmodium berghei", "unit.of.measurement": "%", "inhibition in vivo at 10 mg/kg": 99.6}
{"molecule": "COc1ccc(OC)c(CCN[C@H]2CC[C@H](Nc3ccnc4cc(Cl)ccc34)CC2)c1.Cl.Cl [Example 97, dihydrochloride]", "target.entity": "Plasmodium berghei", "unit.of.measurement": "%", "inhibition in vivo at 10 mg/kg": 99}
{"molecule": "CSc1ccc(CNC(C)(C)CNc2ccnc3cc(Cl)ccc23)cc1.Cl.Cl [Example 44, dihydrochloride]", "target.entity": "Plasmodium berghei", "unit.of.measurement": "%", "inhibition in vivo at 10 mg/kg": 99}
{"molecule": "CC(C)(CNc1ccnc2cc(Cl)ccc12)NCc1ccccc1 [Example 24, dihydrochloride]", "target.entity": "Plasmodium berghei", "unit.of.measurement": "%", "inhibition in vivo at 10 mg/kg": 95}
{"molecule": "Cl.Cl.Clc1ccc2c(N[C@H]3CC[C@H](NCc4ccc5c(c4)OCO5)CC3)ccnc2c1 [Example 103, dihydrochloride]", "target.entity": "Plasmodium berghei", "unit.of.measurement": "%", "inhibition in vivo at 10 mg/kg": 99.8}
{"molecule": "Cl.Cl.Clc1ccc(CN[C@H]2CC[C@@H](Nc3ccnc4cc(Cl)ccc34)CC2)c(Cl)c1 [Example 73, dihydrochloride]", "target.entity": "Plasmodium berghei", "unit.of.measurement": "%", "inhibition in vivo at 10 mg/kg": 96}
{"molecule": "CN(C)c1ccc(CN[C@H]2CC[C@@H](Nc3ccnc4cc(Cl)ccc34)CC2)cc1.Cl.Cl.Cl [Example 69, trihydrochloride]", "target.entity": "Plasmodium berghei", "unit.of.measurement": "%", "inhibition in vivo at 10 mg/kg": 100}

====

- Test system: Plasmodium falciparum strain NF54
- protocol.summary: Growth inhibition of Plasmodium falciparum NF54 (chloroquine-sensitive) in vitro, [G-3H]-hypoxanthin incorporation
- Assay type: cell-based
- assay.conditions: chloroquine-sensitive strain NF54, 72 h, read-out: IC50 for P. falciparum NF54
Listed here: items and their measured IC50.
observed.property: IC50 (ng/mL)

{"molecule": "COc1ccc(OC)c(CNC(C)(C)CNc2ccnc3cc(Cl)ccc23)c1.Cl.Cl [Example 38]", "target.entity": "Plasmodium falciparum strain NF54", "reported.value": 10.1}
{"molecule": "COc1cc(CN[C@H]2CCCC[C@@H]2Nc2ccnc3cc(Cl)ccc23)cc(OC)c1OC.Cl.Cl [Example 65]", "target.entity": "Plasmodium falciparum strain NF54", "reported.value": 9.9}
{"molecule": "Cl.Cl.Clc1ccc(CN[C@@H]2CC[C@H](Nc3ccnc4cc(Cl)ccc34)C2)cc1 (relative stereo) [Example 68]", "target.entity": "Plasmodium falciparum strain NF54", "reported.value": 5.9}

====

- Test system: Plasmodium berghei
- protocol.summary: animal or person
- Assay type: in vivo, Plasmodium berghei (strain ANKA) in mice
- assay.conditions: Plasmodium berghei, sc; single subcutaneous dose of 10 mg/kg, mice, blood smears 48 h after treatment; read-out: Growth inhibition in % after sc administration (GI%, percentage reduction of the parasitemia)

{"compound": "Cl.Cl.Clc1ccc2c(N[C@H]3CC[C@@H](NCc4ccc(-c5ccccc5)cc4)CC3)ccnc2c1 [Example 87, dihydrochloride]", "inhibition in vivo at 10 mg/kg, %": 94}
{"compound": "Cl.Cl.Clc1ccc2c(N[C@H]3CC[C@H](NCCc4ccccc4)CC3)ccnc2c1 [Example 89, dihydrochloride]", "inhibition in vivo at 10 mg/kg, %": 99.9}
{"compound": "CC(C)(CNc1ccnc2cc(Cl)ccc12)NCc1ccc(Oc2ccccc2)cc1.Cl.Cl [Example 43, dihydrochloride]", "inhibition in vivo at 10 mg/kg, %": 98}
{"compound": "CC(C)(CNc1ccnc2cc(Cl)ccc12)NCc1ccc(Cl)c(Cl)c1", "inhibition in vivo at 10 mg/kg, %": 8}
{"compound": "COc1cccc(CCN[C@H]2CC[C@H](Nc3ccnc4cc(Cl)ccc34)CC2)c1OC.Cl.Cl [Example 105, dihydrochloride]", "inhibition in vivo at 10 mg/kg, %": 99}
{"compound": "Cl.Cl.O=[N+]([O-])c1ccc(CN[C@H]2CC[C@@H](Nc3ccnc4cc(Cl)ccc34)CC2)cc1 [Example 84, dihydrochloride]", "inhibition in vivo at 10 mg/kg, %": 100}
{"compound": "CC(C)(CNc1ccnc2cc(Cl)ccc12)NCc1cccc(C#N)c1.Cl.Cl [Example 48, dihydrochloride]", "inhibition in vivo at 10 mg/kg, %": 99.9}
{"compound": "Cl.Cl.Clc1ccc2c(N[C@H]3CC[C@H](NCCc4c(Cl)cccc4Cl)CC3)ccnc2c1 [Example 101, dihydrochloride]", "inhibition in vivo at 10 mg/kg, %": 84}
{"compound": "CC(=O)O.CC(=O)O.CC(C)(CNc1ccnc2cc(Cl)ccc12)NCc1ccccc1O [Example 28, diacetate]", "inhibition in vivo at 10 mg/kg, %": 96}
{"compound": "COc1ccc(CN[C@H]2CC[C@@H](Nc3ccnc4cc(Cl)ccc34)CC2)c(O)c1.Cl.Cl [Example 79, dihydrochloride]", "inhibition in vivo at 10 mg/kg, %": 100}
{"compound": "Cl.Cl.Clc1ccc2c(N[C@H]3CCCC[C@@H]3NCc3ccc(Cl)c(Cl)c3)ccnc2c1 [Example 63, dihydrochloride]", "inhibition in vivo at 10 mg/kg, %": 99.9}

====

- System: Plasmodium berghei
- protocol.summary: animal or person
- Format: in vivo, Plasmodium berghei (strain ANKA) in mice
- assay.conditions: Plasmodium berghei, sc; single subcutaneous dose of 10 mg/kg, mice, blood smears 48 h after treatment; read-out: Growth inhibition in % after sc administration (GI%, percentage reduction of the parasitemia)
- Method: Test method for the determination of the activity against Plasmodium berghei in vivo The preparations are tested on mice infected with malaria pathogens (Plasmodium berghei). […] 48 hours after the treatment (D+3) blood smears are prepared from all animals using blood from tail veins and are stained with giemsa. […] The difference in the average values of the infection rates of control group (100%) and treated groups is calculated and expressed as a percentage reduction (GI%). […]
Counter-ions that a name gives are not always drawn.
Entries and their measured inhibition in vivo at 10 mg/kg follow.

{"compound": "Cl.Cl.Clc1ccc(CN[C@H]2CC[C@H](Nc3ccnc4cc(Cl)ccc34)CC2)c(Cl)c1 [Example 109, dihydrochloride]", "unit.of.measurement": "%", "inhibition in vivo at 10 mg/kg": 91}
{"compound": "Cl.Cl.Clc1cccc(CN[C@H]2CC[C@@H](Nc3ccnc4cc(Cl)ccc34)CC2)c1 [Example 71, dihydrochloride]", "unit.of.measurement": "%", "inhibition in vivo at 10 mg/kg": 99.9}
{"compound": "Cl.Cl.Clc1ccc(CCN[C@H]2CC[C@H](Nc3ccnc4cc(Cl)ccc34)CC2)c(Cl)c1 [Example 91, dihydrochloride]", "unit.of.measurement": "%", "inhibition in vivo at 10 mg/kg": 86}
{"compound": "Cl.Cl.Clc1ccc2c(N[C@H]3CC[C@@H](NCc4c(Cl)cccc4Cl)CC3)ccnc2c1 [Example 15, dihydrochloride]", "unit.of.measurement": "%", "inhibition in vivo at 10 mg/kg": 92}
{"compound": "COc1cc(O)c(CN[C@H]2CC[C@@H](Nc3ccnc4cc(Cl)ccc34)CC2)c(OC)c1.Cl.Cl [Example 18, dihydrochloride]", "unit.of.measurement": "%", "inhibition in vivo at 10 mg/kg": 100}
{"compound": "Cl.Cl.N#Cc1ccc(CN[C@H]2CCCC[C@@H]2Nc2ccnc3cc(Cl)ccc23)cc1 [Example 67, dihydrochloride]", "unit.of.measurement": "%", "inhibition in vivo at 10 mg/kg": 99}
{"compound": "CC(C)(CNc1ccnc2cc(Cl)ccc12)NCc1ccnc2ccccc12.Cl.Cl.Cl [Example 58, trihydrochloride]", "unit.of.measurement": "%", "inhibition in vivo at 10 mg/kg": 88}
{"compound": "Cl.Cl.Clc1ccc2c(N[C@H]3CC[C@@H](NCCc4ccccc4)CC3)ccnc2c1 [Example 13, dihydrochloride]", "unit.of.measurement": "%", "inhibition in vivo at 10 mg/kg": 99.9}
{"compound": "CC(C)(CNc1ccnc2cc(Cl)ccc12)NCc1ccc(-c2ccccc2)cc1 [Example 51, dihydrochloride]", "unit.of.measurement": "%", "inhibition in vivo at 10 mg/kg": 99}
